# credit: paper PMC12382614

Assay overview: UV-Vis absorption spectra in MeOH
Assay type: physicochemical
Assay readout: λabs Soret (B)
Could you give the number and then its unit, please?

Recorded λabs Soret (B), per entry:
CC(=O)Nc1ccc(-c2c3nc(c(-c4ccc[n+]([O-])c4)c4ccc([nH]4)c(-c4ccc[n+]([O-])c4)c4nc(c(-c5ccc[n+]([O-])c5)c5ccc2[nH]5)C=C4)C=C3)cc1
416 nm
CCCCCCCCCCCCCC(=O)Nc1ccc(-c2c3nc(c(-c4ccc[n+]([O-])c4)c4ccc([nH]4)c(-c4ccc[n+]([O-])c4)c4nc(c(-c5ccc[n+]([O-])c5)c5ccc2[nH]5)C=C4)C=C3)cc1
417 nm
CCCCCCCCCC(=O)Nc1ccc(-c2c3nc(c(-c4ccc[n+]([O-])c4)c4ccc([nH]4)c(-c4ccc[n+]([O-])c4)c4nc(c(-c5ccc[n+]([O-])c5)c5ccc2[nH]5)C=C4)C=C3)cc1
417 nm

Now look at this entry.
# input Could you tell me which λabs Soret (B) is on file for CCCCCCCCCCCCCCCCCC(=O)Nc1ccc(-c2c3nc(c(-c4ccc[n+]([O-])c4)c4ccc([nH]4)c(-c4ccc[n+]([O-])c4)c4nc(c(-c5ccc[n+]([O-])c5)c5ccc2[nH]5)C=C4)C=C3)cc1 ?
# output 417 nm

---

Tested on: MeWo
Assay overview: Photocytotoxicity, MTT assay
Type: cell-based, human
Protocol conditions: 6 h incubation, red light 643 nm 30 min, 3.6 J/cm^2, normoxia; read-out: IC50 MeWo No CoCl2
Assay readout: IC50

# input Could you tell me which IC50 is on file for CCCCCCCCCC(=O)Nc1ccc(-c2c3nc(c(-c4ccc[n+](C)c4)c4ccc([nH]4)c(-c4ccc[n+](C)c4)c4nc(c(-c5ccc[n+](C)c5)c5ccc2[nH]5)C=C4)C=C3)cc1 ?
# output 3.52 µM

# input Okay, and CCCCCCCCCCCCCC(=O)Nc1ccc(-c2c3nc(c(-c4ccc[n+](C)c4)c4ccc([nH]4)c(-c4ccc[n+](C)c4)c4nc(c(-c5ccc[n+](C)c5)c5ccc2[nH]5)C=C4)C=C3)cc1 ?
# output 0.43 µM

---

Tested on: MeWo
Assay overview: Photocytotoxicity, MTT assay
Type: cell-based, human
Protocol conditions: Homo sapiens, MeWo, light or radiation study; 6 h incubation, red light 643 nm 30 min, 3.6 J/cm^2, normoxia; read-out: IC50 MeWo No CoCl2
Assay readout: IC50 (nM)
Answer format: numeric, nM implied, no suffix.

Recorded IC50, per entry:
CCCCCCCCCCCCCCCCCC(=O)Nc1ccc(-c2c3nc(c(-c4ccc[n+]([O-])c4)c4ccc([nH]4)c(-c4ccc[n+]([O-])c4)c4nc(c(-c5ccc[n+]([O-])c5)c5ccc2[nH]5)C=C4)C=C3)cc1
660
CCCCCCCCCC(=O)Nc1ccc(-c2c3nc(c(-c4ccc[n+]([O-])c4)c4ccc([nH]4)c(-c4ccc[n+]([O-])c4)c4nc(c(-c5ccc[n+]([O-])c5)c5ccc2[nH]5)C=C4)C=C3)cc1
5460

# input Could you tell me which IC50 is on file for CCCCCCCCCCCCCC(=O)Nc1ccc(-c2c3nc(c(-c4ccc[n+]([O-])c4)c4ccc([nH]4)c(-c4ccc[n+]([O-])c4)c4nc(c(-c5ccc[n+]([O-])c5)c5ccc2[nH]5)C=C4)C=C3)cc1 ?
# output 1040
